Recorded values, source ChEMBL document CHEMBL2010699.

run description: Selectivity index, ratio of CC50 for african green monkey Vero cells to EC50 for Coxsackievirus B3
Format: toxicity, cell-based
experimental conditions: read-out: Ratio CC50/EC50
Listed here are molecules together with their documented selectivity ratio.

[
  {
    "molecule": "Oc1ccc(O[C@H]2C[C@H]3C[C@@H]2C[C@@H]3n2cnc3c(Cl)ncnc32)cc1 (relative stereo)",
    "selectivity ratio": 3.7
  },
  {
    "molecule": "OCCCCO[C@H]1C[C@H]2C[C@@H]1C[C@@H]2n1cnc2c(Cl)ncnc21 (relative stereo)",
    "selectivity ratio": "> 16"
  },
  {
    "molecule": "CCCCCC(=O)O[C@H]1C[C@H]2C[C@@H]1[C@H](n1cnc3c(Cl)ncnc31)C2 (relative stereo)",
    "selectivity ratio": "< 1"
  },
  {
    "molecule": "OCCO[C@H]1C[C@H]2C[C@@H]1C[C@@H]2n1cnc2c(Cl)ncnc21 (relative stereo)",
    "selectivity ratio": "> 18"
  },
  {
    "molecule": "CCCCCCCCCC(=O)O[C@H]1C[C@H]2C[C@@H]1C[C@@H]2n1cnc2c(Cl)ncnc21 (relative stereo)",
    "selectivity ratio": 1.5
  },
  {
    "molecule": "CCCCCO[C@H]1C[C@H]2C[C@@H]1C[C@@H]2n1cnc2c(Cl)ncnc21 (relative stereo)",
    "selectivity ratio": 1.5
  },
  {
    "molecule": "OCCCCCO[C@H]1C[C@H]2C[C@@H]1C[C@@H]2n1cnc2c(Cl)ncnc21 (relative stereo)",
    "selectivity ratio": "> 26"
  },
  {
    "molecule": "OCCO[C@H]1C[C@H]2C[C@@H]1[C@H](n1cnc3c(Cl)ncnc31)C2 (relative stereo)",
    "selectivity ratio": "> 22"
  },
  {
    "molecule": "Clc1ncnc2c1ncn2[C@H]1C[C@H]2C[C@@H]1C[C@@H]2Oc1ccccc1 (relative stereo)",
    "selectivity ratio": "< 1"
  },
  {
    "molecule": "CCCCCCCC(=O)O[C@H]1C[C@H]2C[C@@H]1C[C@@H]2n1cnc2c(Cl)ncnc21 (relative stereo)",
    "selectivity ratio": "< 1"
  }
]
